Molecular target: Pf5202 20S proteasome trypsin-like (T-L) site (Plasmodium falciparum, UniProt Q8I6T3)
Sequence (Q8I6T3 entry or part of it): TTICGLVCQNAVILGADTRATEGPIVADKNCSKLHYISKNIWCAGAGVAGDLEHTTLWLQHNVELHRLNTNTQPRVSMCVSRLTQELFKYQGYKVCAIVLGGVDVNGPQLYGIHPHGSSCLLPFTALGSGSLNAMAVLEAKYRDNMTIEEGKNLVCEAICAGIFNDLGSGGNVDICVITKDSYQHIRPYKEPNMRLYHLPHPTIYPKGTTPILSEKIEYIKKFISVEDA
Assay: 20S proteasome inhibition assay using parasite lysate
Details: parasite lysate; Boc-LRR-AMC; 30 min
Procedure: To harvest P. falciparum parasites, intraerythrocytic Pf3D7 and Pf5202 were collected in trophozoite and early schizont stages. Red blood cells were lysed in 0.15% (w/v) saponin lysis buffer for 10 min at 37 °C. After lysis, the parasite pellet was washed once with PBS buffer by centrifuging at 1600 rpm for 5 min. […] Protein concentration was determined by the Bradford assay. […] Activity of each proteolytic site were calculated, and the IC50 values were determined from the non-linear regression analysis. […]
value-type: pIC50
Bear in mind: pIC50 is minus log10 of a mol/L concentration; give just that figure.

Example results:
Item O=[N+]([O-])c1ccc(S(=O)(=O)N2CCN(c3ccnc4cc(Cl)ccc34)CC2)c([N+](=O)[O-])c1 [VR23, reference compound] has what recorded pIC50?
6.07

Item O.O=[N+]([O-])[O-].O=[N+]([O-])[O-].[Cu+2].c1cnc2c(c1)ccc1cccnc12.c1cnc2c(c1)ccc1cccnc12 [Complex 1, [Cu(phen)2](NO3)2·H2O] has what recorded pIC50?
5.79

Continuing:
Item c1cnc2c(c1)ccc1cccnc12 [phen, 1,10-phenanthroline, reference compound] has what recorded pIC50?
5.75

====

target: Pf3D7 20S proteasome chymotrypsin-like (CT-L) site (Plasmodium falciparum); experiment: 20S proteasome inhibition assay using parasite lysate; details: Suc-LLVY-AMC, 30 min
Sequence (Q8IJT1 entry or part of it): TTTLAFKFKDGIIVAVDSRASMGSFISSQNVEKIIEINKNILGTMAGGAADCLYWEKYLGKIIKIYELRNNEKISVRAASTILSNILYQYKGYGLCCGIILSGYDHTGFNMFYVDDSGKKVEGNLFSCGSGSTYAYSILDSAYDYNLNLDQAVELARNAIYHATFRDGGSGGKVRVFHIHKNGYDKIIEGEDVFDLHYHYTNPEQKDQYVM
pIC50: −log10 of the molar value.
value-type: pIC50

Form entry - test system: Pf3D7 20S proteasome chymotrypsin-like (CT-L) site (Plasmodium falciparum); read-out: pIC50; molecule: O.O=[N+]([O-])[O-].O=[N+]([O-])[O-].[Cu+2].c1cnc2c(c1)ccc1cccnc12.c1cnc2c(c1)ccc1cccnc12 [Complex 1, [Cu(phen)2](NO3)2·H2O]
< 4.60

Attention now turns to another entry.
Form entry - test system: Pf3D7 20S proteasome chymotrypsin-like (CT-L) site (Plasmodium falciparum); read-out: pIC50; molecule: O=[N+]([O-])c1ccc(S(=O)(=O)N2CCN(c3ccnc4cc(Cl)ccc34)CC2)c([N+](=O)[O-])c1 [VR23, reference compound]
< 5.30

====

assay: PNDA assay of •OH radicals from reaction with H2O2; conditions: 30 µM compound with excess H2O2; 48 h
value-type: Concentration of •OH radical (µM)
The response must be a number in µM with no trailing unit.

Example results:
Item c1cnc2c(c1)ccc1cccnc12 [phen, 1,10-phenanthroline, reference compound] has what recorded Concentration of •OH radical?
0.36

Item O.O.O.O=[N+]([O-])[O-].O=[N+]([O-])[O-].[Cu+2] [Cu(NO3)2·3H2O, Copper(II) nitrate trihydrate, reference compound] has what recorded Concentration of •OH radical?
33.20

Item O.O=[N+]([O-])[O-].O=[N+]([O-])[O-].[Cu+2].c1cnc2c(c1)ccc1cccnc12.c1cnc2c(c1)ccc1cccnc12 [Complex 1, [Cu(phen)2](NO3)2·H2O] has what recorded Concentration of •OH radical?
32.19

Attention now turns to another entry.
Item O.O.O=[N+]([O-])[O-].O=[N+]([O-])[O-].[Zn+2].c1cnc2c(c1)ccc1cccnc12.c1cnc2c(c1)ccc1cccnc12 [Complex 2, [Zn(phen)2](NO3)2·2H2O] has what recorded Concentration of •OH radical?
0.21
